# TARGET_OF_ASSAY: UniProt O50860
# Sequence (O50860 entry or part of it): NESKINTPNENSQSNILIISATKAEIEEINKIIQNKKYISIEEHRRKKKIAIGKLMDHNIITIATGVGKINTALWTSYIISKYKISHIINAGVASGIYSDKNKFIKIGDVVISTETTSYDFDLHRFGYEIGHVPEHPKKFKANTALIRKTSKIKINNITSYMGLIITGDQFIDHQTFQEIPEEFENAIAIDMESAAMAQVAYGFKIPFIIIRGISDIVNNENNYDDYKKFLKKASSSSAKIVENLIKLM
# ASSAY_OVERVIEW: MTAN inhibition constants (competitive inhibition of MTA hydrolysis)
# Type: biochemical, Borrelia burgdorferi
# CONDITION_NOTES: MTA 100 µM, inhibitor 0 to 100 µM, read-out: Ki (inhibition constant)
pKi: −log10 of the molar value.

{"COMPOUND": "Nc1ncnc2c1ncn2[C@@H]1O[C@H](CI)[C@@H](O)[C@H]1O [IADO, 5′-deoxy-5′-iodoadenosine]", "pKi": 5.61}
